- SYSTEM_UNDER_TEST: specific benzodiazepine receptors in the cerebral cortex
- PROCEDURE_SUMMARY: inhibition of the binding of tritiated diazepam at the specific benzodiazepine receptors in the cerebral cortex
- TEST_PARAMETERS: thieno derivatives, A = group (b)
REPORTED_METRIC: pIC50
Answers are plain numbers, as −log10 of the molar value.

Solved entries (count: 3):
- COMPOUND: "CCOC(=O)c1ncn2c1[C@@H]1CCCN1C(=O)c1sccc1-2 [Example 34]"
  pIC50: 9.05
- COMPOUND: "COC(=O)c1ncn2c1[C@@H]1CCCN1C(=O)c1sccc1-2 [Example 35]"
  pIC50: 8.68
- COMPOUND: "COC(=O)c1ncn2c1CN(C)C(=O)c1sccc1-2 [Example 37]"
  pIC50: 8.92

Moving on to the next compound.
Please look up its pIC50: CCOC(=O)c1ncn2c1CN(C)C(=O)c1sccc1-2 [Example 36]
8.96

###

- SYSTEM_UNDER_TEST: specific benzodiazepine receptors in the cerebral cortex
- PROCEDURE_SUMMARY: inhibition of the binding of tritiated diazepam at the specific benzodiazepine receptors in the cerebral cortex
- TEST_PARAMETERS: compounds of formula I with A = group (a)
Record form. Attribute: pIC50. Fill in for each entry.
Numbers only, as −log10 of the molar value.

- MOLECULE: "CC(C)OC(=O)c1ncn2c1[C@@H]1CCCN1C(=O)c1ccccc1-2"
  REPORTED_METRIC: "pIC50"
  MEASURED_VALUE: 5.52
- MOLECULE: "COC(=O)c1ncn2c1CN(C)C(=O)c1cc(F)ccc1-2"
  REPORTED_METRIC: "pIC50"
  MEASURED_VALUE: 5.22
- MOLECULE: "CCOC(=O)c1ncn2c1CN(C)C(=O)c1ccccc1-2"
  REPORTED_METRIC: "pIC50"
  MEASURED_VALUE: 5.52

Parameters: items (list). Returns: pIC50 for each item.
1. CN1Cc2c(C#N)ncn2-c2ccccc2C1=O
2. CCOC(=O)c1ncn2c1[C@@H]1CCCN1C(=O)c1cc(F)ccc1-2
3. CCOC(=O)c1ncn2c1C1C=CCN1C(=O)c1c(F)cccc1-2 (stereo not shown)
4. CCOC(=O)c1ncn2c1CN(C)C(=O)c1c(F)cccc1-2
5. CCOC(=O)c1ncn2c1CN(C)C(=S)c1cc(F)ccc1-2
6. CC(C)OC(=O)c1ncn2c1CN(C)C(=O)c1cc(F)ccc1-2

4.00
5.22
5.68
5.70
5.60
5.41

Provide pIC50 values for the following items, in order.
1. CCOC(=O)c1ncn2c1[C@@H]1CCCN1C(=O)c1c(Cl)cccc1-2
2. CCOC(=O)c1ncn2c1CN(C)C(=O)c1c(Cl)cccc1-2
3. CN1Cc2c(C#N)ncn2-c2ccc(F)cc2C1=O

1: 5.77; 2: 5.52; 3: 4.03

Hi team, please reply with pIC50 for each item in this list.
1. CC(C)OC(=O)c1ncn2c1CN(C)C(=O)c1ccccc1-2
2. COC(=O)c1ncn2c1[C@@H]1CCCN1C(=O)c1ccccc1-2
3. CCOC(=O)c1ncn2c1CN(C)C(=S)c1ccccc1-2
4. CCOC(=O)c1ncn2c1CN(C)C(=O)c1c(C)cccc1-2
5. N#Cc1ncn2c1[C@@H]1CCCN1C(=O)c1ccccc1-2
6. CCOC(=O)c1ncn2c1[C@@H]1CCCN1C(=O)c1ccccc1-2
7. CCOC(=O)c1ncn2c1CN(C)C(=O)c1cc(F)ccc1-2
8. CCOC(=O)c1ncn2c1C1C=CCN1C(=O)c1ccccc1-2 (racemic)

1: 4.92; 2: 4.49; 3: 5.22; 4: 5.30; 5: 4.51; 6: 5.19; 7: 5.60; 8: 5.64

Batch lookup, pIC50 per entry.
1. CCOC(=O)c1ncn2c1[C@@H]1CCCN1C(=O)c1c(C)cccc1-2
2. COC(=O)c1ncn2c1CN(C)C(=O)c1ccccc1-2

1. 5.30
2. 5.05

###

- PROCEDURE_SUMMARY: acute toxicity following single oral administration to mice
- TEST_PARAMETERS: mouse, in vivo
REPORTED_METRIC: LD50

As a guide, the following entries are already answered.
- CHEMICAL_STRING: "CCOC(=O)c1ncn2c1[C@@H]1CCCN1C(=O)c1c(Cl)cccc1-2"
  LD50: "750 to 1500 mg/kg"
- CHEMICAL_STRING: "CCOC(=O)c1ncn2c1CN(C)C(=O)c1cc(F)ccc1-2"
  LD50: "> 5000 mg/kg"
- CHEMICAL_STRING: "CCOC(=O)c1ncn2c1CN(C)C(=O)c1ccccc1-2"
  LD50: "> 5000 mg/kg"
- CHEMICAL_STRING: "CCOC(=O)c1ncn2c1CN(C)C(=O)c1c(F)cccc1-2"
  LD50: "> 5000 mg/kg"

Could you now look at the following compound, please?
Which LD50 is listed for CC(C)OC(=O)c1ncn2c1CN(C)C(=O)c1cc(F)ccc1-2 ?
> 5000 mg/kg
